Tested on: MDA-MB-231 cells
Assay: MTT cytotoxicity of PTX silicate prodrugs
Format: cell-based, human
Details: Homo sapiens, MDA-MB-231, 48 h
EXPERIMENTAL READOUT: pIC50
Scale: negative log10 of molar concentration, which is what pIC50 denotes.

QUERY: Item CCO[Si](O[C@@H](C(=O)O[C@H]1C[C@@]2(O)[C@@H](OC(=O)c3ccccc3)[C@@H]3[C@]4(OC(C)=O)CO[C@@H]4C[C@H](O)[C@@]3(C)C(=O)[C@H](OC(C)=O)C(=C1C)C2(C)C)[C@@H](NC(=O)c1ccccc1)c1ccccc1)(OC(C)(C)C)OC(C)(C)C has what recorded pIC50?
RESULT: 5.09

QUERY: Any idea what pIC50 was measured for CCO[Si](OCC)(OCC)O[C@@H](C(=O)O[C@H]1C[C@@]2(O)[C@@H](OC(=O)c3ccccc3)[C@@H]3[C@]4(OC(C)=O)CO[C@@H]4C[C@H](O)[C@@]3(C)C(=O)[C@H](OC(C)=O)C(=C1C)C2(C)C)[C@@H](NC(=O)c1ccccc1)c1ccccc1 ?
RESULT: 7.64

QUERY: Return reported pIC50; argument: CCO[Si](OCC)(OCC)O[C@H]1C[C@H]2OC[C@@]2(OC(C)=O)[C@H]2[C@H](OC(=O)c3ccccc3)[C@]3(O)C[C@H](OC(=O)[C@H](O[Si](OCC)(OCC)OCC)[C@@H](NC(=O)c4ccccc4)c4ccccc4)C(C)=C([C@@H](OC(C)=O)C(=O)[C@]12C)C3(C)C
RESULT: 7.13
